Test system: ATP;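 also: ATP exposure 15 min at 22 °C before imaging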
experimentNotes: switch fluorescence ratio, 500 uM ATP over buffer (Cy3 cluster intensity, sum of 5 cycles each) (fold (ratio)); higher = stronger signal-on switching upon ATP binding; sequences stand for … in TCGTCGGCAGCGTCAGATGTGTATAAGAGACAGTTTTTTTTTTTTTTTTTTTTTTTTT…TC
statedConditions: aptamer strand: ATP DNA aptamer (quencher-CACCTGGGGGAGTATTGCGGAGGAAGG + anchor), 100 nM annealed; ATP concentration: 500 uM
Parameter threshold = 1. Response is 1 when switch fluorescence ratio meets or exceeds it, else -1.

The following sequences have reported results that may help.
> print(dat)
   orderedresidues  grouplabel
1       AGATGTTCCG           1
2       CAATTGGCCT           1
3       TAAAATATTA           1

Decide: is the reported value of switch fluorescence ratio for `TCGGTGTCCG` equal to or greater than 1? 1

Decide: is the reported value of switch fluorescence ratio for `CGGGGGGCGC` equal to or greater than 1? -1

Decide: is the reported value of switch fluorescence ratio for `TGCCGAAAGT` equal to or greater than 1? -1

Decide: is the reported value of switch fluorescence ratio for `AAACATGGTG` equal to or greater than 1? 1

Decide: is the reported value of switch fluorescence ratio for `CGATGGTACG` equal to or greater than 1? -1

Decide: is the reported value of switch fluorescence ratio for `GAATCGTTTT` equal to or greater than 1? -1

Decide: is the reported value of switch fluorescence ratio for `TTTGGGGGGA` equal to or greater than 1? 1

====

System: ATP;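 also: ATP exposure 15 min at 22 °C before imaging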
experimentNotes: switch fluorescence ratio, 500 uM ATP over buffer (Cy3 cluster intensity, sum of 5 cycles each) (fold (ratio)); higher = stronger signal-on switching upon ATP binding; sequences stand for … in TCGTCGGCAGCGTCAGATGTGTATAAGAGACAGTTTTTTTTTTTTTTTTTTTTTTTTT…TC
statedConditions: aptamer strand: ATP DNA aptamer (quencher-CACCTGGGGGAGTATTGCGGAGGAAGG + anchor), 100 nM annealed; ATP concentration: 500 uM
measuredAttribute: switch fluorescence ratio
Answers are plain numbers.

> print(dat)
   orderedresidues  systemundertest  recordedvalue
1       AGAAAAAACG              ATP           1.05
2       GCGGAGCGTA              ATP           1.06
3       TAACGCCGTG              ATP           1.02
4       GAGATGGTGC              ATP           0.99
5       CAGGATGAAT              ATP          0.999

We next turn to a different sequence, shown below.
Field request: switch fluorescence ratio | item: `AGGGAGGCCG` 0.98

====

Can you tell me switch fluorescence ratio for the items I'm about to list?
Tested on: ATP;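 also: ATP exposure 15 min at 22 °C before imaging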
experimentNotes: switch fluorescence ratio, 500 uM ATP over buffer (Cy3 cluster intensity, sum of 5 cycles each) (fold (ratio)); higher = stronger signal-on switching upon ATP binding; sequences stand for … in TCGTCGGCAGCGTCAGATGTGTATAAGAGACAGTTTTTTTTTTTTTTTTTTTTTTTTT…TC
statedConditions: aptamer strand: ATP DNA aptamer (quencher-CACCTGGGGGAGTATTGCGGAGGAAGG + anchor), 100 nM annealed; ATP concentration: 500 uM
Give bare numbers.

Some sequences with recorded switch fluorescence ratio:
> print(dat)
   orderedresidues  systemundertest  recordedvalue
1       TGTTCTTATA              ATP          0.993
2       GATGGTATTT              ATP          0.979
3       ATTGCGGGTA              ATP          0.992
4       GACTTTGAAT              ATP           1.01
5       GTTGGATCCG              ATP          0.984
6       ATAGGATAGT              ATP          0.976
7       TTGTTTAGCC              ATP          0.989
8       TAATGTGGTT              ATP          0.989

Provide reported switch fluorescence ratio for each item, in the same order as listed.
1. TGCCCGGGGT
2. GTAGTCTAGA
3. TTGTGGTGAG
4. CATCTCTGGA

1.05
0.965
0.987
0.999
